Biological target: T1, human CD19 on CHO-K1-human CD19 cells (human, UniProt P15391 20-556)
T1 construct: whole, on cells; also called CHO-K1-human CD19-2C8
T1 sequence (looked up): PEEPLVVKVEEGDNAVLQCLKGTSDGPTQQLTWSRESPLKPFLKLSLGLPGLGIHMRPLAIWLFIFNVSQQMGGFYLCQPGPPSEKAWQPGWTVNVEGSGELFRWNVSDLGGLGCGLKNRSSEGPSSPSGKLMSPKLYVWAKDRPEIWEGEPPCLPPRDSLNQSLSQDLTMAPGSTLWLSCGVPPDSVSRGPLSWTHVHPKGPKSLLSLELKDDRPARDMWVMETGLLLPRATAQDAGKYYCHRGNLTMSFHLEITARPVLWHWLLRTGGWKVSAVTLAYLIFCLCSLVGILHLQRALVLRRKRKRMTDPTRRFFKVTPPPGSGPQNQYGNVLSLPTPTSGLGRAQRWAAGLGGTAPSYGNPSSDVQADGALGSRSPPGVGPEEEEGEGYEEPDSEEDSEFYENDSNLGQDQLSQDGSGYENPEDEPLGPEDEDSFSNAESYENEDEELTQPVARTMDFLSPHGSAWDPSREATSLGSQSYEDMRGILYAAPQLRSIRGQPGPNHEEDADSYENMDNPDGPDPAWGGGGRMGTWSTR
Experiment: FACS on CHO-K1-human CD19 cells
I'd be grateful if you could share measured EC50 for these entries.

Consider the worked cases shown below.
| BINDER | RESULT |
| --- | --- |
| F4.276.12 (antibody, human IgG1, V domains shown, human-murine chimeric antibody, human IgG1) VH: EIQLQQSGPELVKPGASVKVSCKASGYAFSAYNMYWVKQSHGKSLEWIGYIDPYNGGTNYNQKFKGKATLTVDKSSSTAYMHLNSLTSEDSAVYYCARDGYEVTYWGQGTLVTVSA VL: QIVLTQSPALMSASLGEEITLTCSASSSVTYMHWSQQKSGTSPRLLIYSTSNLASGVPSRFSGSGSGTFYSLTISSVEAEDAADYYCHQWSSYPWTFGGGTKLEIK | 1.05 nM |
| F4.78.1 (antibody, human IgG1, V domains shown, human-murine chimeric antibody, human IgG1) VH: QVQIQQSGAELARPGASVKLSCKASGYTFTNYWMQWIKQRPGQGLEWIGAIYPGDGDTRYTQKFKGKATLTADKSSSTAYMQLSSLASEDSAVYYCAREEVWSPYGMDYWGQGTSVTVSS VL: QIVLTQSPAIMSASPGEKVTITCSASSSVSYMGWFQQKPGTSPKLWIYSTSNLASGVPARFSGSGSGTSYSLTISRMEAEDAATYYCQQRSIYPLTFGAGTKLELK | 0.51 nM |

Request: Fill in: EC50 of F4.37.6 (antibody, human IgG1, V domains shown, human-murine chimeric antibody, human IgG1) VH: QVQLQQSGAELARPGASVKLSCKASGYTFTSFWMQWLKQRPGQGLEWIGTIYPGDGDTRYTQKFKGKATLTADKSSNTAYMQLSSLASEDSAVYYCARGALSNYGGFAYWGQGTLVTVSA VL: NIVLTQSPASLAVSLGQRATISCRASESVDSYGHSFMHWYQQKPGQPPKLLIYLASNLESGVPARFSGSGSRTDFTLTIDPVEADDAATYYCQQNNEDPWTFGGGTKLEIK is ___
Response: ~0.035 nM
